IC50 values for the molecules below.
system: T. cruzi intracellular amastigotes; assay: Anti-amastigote assay in infected peritoneal macrophages (infection index); assay type: cell-based, Trypanosoma cruzi; details: Trypanosoma cruzi, Peritoneal macrophage, in Mus musculus; intracellular amastigotes in BALB/c peritoneal macrophages, 48 h; read-out: IC50 Ama

> print(dat)
                                   molecule    result
1                 C=CCc1cc(/C=C/C)cc(OC)c1O   10.4 µM
2                      C=CCOc1ccc(C=O)cc1OC  > 100 µM
3  C=CCc1cc([C@H]2Oc3c(OC)cc(/C=C/C)cc3[C@@H]2C)cc(OC)c1O  > 100 µM
4  COc1cc(C=O)ccc1OC(C)=O [2b, (4-formyl-2-methoxy-phenyl) acetate]    5.6 µM
5  C=CCOc1ccc([C@H]2Oc3c(OC)cc(/C=C/C)cc3[C@@H]2C)cc1OC  > 100 µM
6                          COc1cc(C=O)ccc1O    5.5 µM
7  C=CCc1cc(C=O)cc(OC)c1O [2d, 3-allyl-4-hydroxy-5-methoxy-benzaldehyde]  > 100 µM
8                     C=CCOc1ccc(CC=C)cc1OC  > 100 µM

QUERY: So what does the record say about IC50 for `C/C=C/c1cc(OC)c2c(c1)[C@H](C)[C@@H](c1cc(OC)c3oc(C)cc3c1)O2` ?
RESULT: > 100 µM

QUERY: Could you tell me which IC50 is on file for `C=CCOc1ccc(/C=C/C)cc1OC` ?
RESULT: > 100 µM
